TEST PROTOCOL: Motesanib plasma pharmacokinetics (LC-MS/MS, noncompartmental)
Parameters: species or system human
EXPERIMENTAL SETUP: human, in vivo, week 3; 125 mg QD motesanib + 100 mg QD erlotinib + gemcitabine; read-out: Cmax, median
ASSAY READOUT: Cmax
Provide a numeric answer, followed by its unit.

Which Cmax reading was recorded for the compound CC1(C)CNc2cc(NC(=O)c3cccnc3NCc3ccncc3)ccc21 ?
655 ng/mL

----------
TEST PROTOCOL: Motesanib plasma pharmacokinetics (LC-MS/MS, noncompartmental)
Set-up: species or system human
EXPERIMENTAL SETUP: human, in vivo, week 3; 125 mg QD motesanib + 100 mg QD erlotinib + gemcitabine; read-out: C24, median
ASSAY READOUT: concentration at 24 h (ng/mL)
Report only the number, with the unit ng/mL understood.

Suppose we examine the molecule CC1(C)CNc2cc(NC(=O)c3cccnc3NCc3ccncc3)ccc21 [motesanib] ; what concentration at 24 h value has been reported?
37
